Target: Cathepsin B (Homo sapiens)
Assay: Inhibitory activity against human cathepsin B
recorded.endpoint: IC50 (µM)

1) N#CCNC(=O)C1(NC(=O)c2ccc(N3CCOCC3)cc2)CCCCC1 15.4
2) CCCN1CCN(c2ccc(C(=O)NC3(C(=O)NCC#N)CCCCC3)cc2)CC1 4.8

[I] N#CCNC(=O)C1(NC(=O)c2ccc(-c3csc(N4CCOCC4)n3)cc2)CCCCC1
[II] N#CCNC(=O)[C@H](CC1CCCCC1)NC(=O)c1ccccc1
[III] CN1CCN(c2nc(-c3ccc(C(=O)NC4(C(=O)NCC#N)CCCCC4)cc3)cs2)CC1
[IV] CC(C)C[C@@H](C(=O)NCC#N)c1cccc(-c2ccc(N3CCNCC3)cc2)c1
(Q) Rank ascending by IC50. # answer = labels listed in requested order
(A) III, I, II, IV

----------
Assay: Partition co-efficient, logP of the compound
Format: physicochemical
Settings: octanol/water
recorded.endpoint: logP

Answered cases to consult:
1) CN1CCN(c2nc(-c3ccc(C(=O)NC4(C(=O)NCC#N)CCCCC4)cc3)cs2)CC1 2.3
2) CC(C)C[C@@H](C(=O)NCC#N)c1cccc(-c2ccc(N3CCNCC3)cc2)c1 3.46

[I] CCCN1CCN(c2ccc(C(=O)NC3(C(=O)NCC#N)CCCCC3)cc2)CC1
[II] CN1CCN(c2nc(-c3ccc(C(=O)NC4(C(=O)NCC(F)(F)F)CCCCC4)cc3)cs2)CC1
[III] N#CCNC(=O)C1(NC(=O)c2ccc(N3CCOCC3)cc2)CCCCC1
(Q) # rank_down: sort by logP, max first # answer = labels listed in requested order
(A) II, I, III

----------
Target: Cathepsin B (Homo sapiens, UniProt P07858)
Test: Inhibitory activity against human cathepsin B expressed in HepG2 cells
Format: cell-based
recorded.endpoint: IC50 (nM)

Answered cases to consult:
1) CC(C)C[C@@H](C(=O)NCC#N)c1cccc(-c2ccc(N3CCNCC3)cc2)c1 4400
2) N#CCNC(=O)C1(NC(=O)c2ccc(-c3csc(N4CCOCC4)n3)cc2)CCCCC1 2900

[a] N#CCNC(=O)C1(NC(=O)c2ccc(N3CCOCC3)cc2)CCCCC1
[b] CCCN1CCN(c2ccc(C(=O)NC3(C(=O)NCC#N)CCCCC3)cc2)CC1
[c] N#CCNC(=O)[C@H](CC1CCCCC1)NC(=O)c1ccccc1
[d] CN1CCN(c2nc(-c3ccc(C(=O)NC4(C(=O)NCC#N)CCCCC4)cc3)cs2)CC1
(Q) Rank ascending by IC50. # answer = labels listed in requested order
(A) d, b, c, a

----------
Biological target: UniProtKB P07711
Sequence (P07711 whole entry): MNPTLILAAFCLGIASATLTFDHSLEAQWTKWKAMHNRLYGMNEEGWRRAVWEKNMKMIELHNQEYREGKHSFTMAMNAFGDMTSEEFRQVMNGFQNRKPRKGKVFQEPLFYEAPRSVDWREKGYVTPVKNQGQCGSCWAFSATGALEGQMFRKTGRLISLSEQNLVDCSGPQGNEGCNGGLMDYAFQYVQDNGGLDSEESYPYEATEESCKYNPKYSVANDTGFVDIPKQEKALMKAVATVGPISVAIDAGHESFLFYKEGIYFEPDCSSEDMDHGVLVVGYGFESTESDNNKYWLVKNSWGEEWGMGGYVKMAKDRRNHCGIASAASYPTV
Assay: Inhibitory activity against human cathepsin L expressed in HepG2 cells
Format: cell-based
recorded.endpoint: IC50 (nM)

compound	IC50 [nM]
CN1CCN(c2nc(-c3ccc(C(=O)NC4(C(=O)NCC#N)CCCCC4)cc3)cs2)CC1	340
N#CCNC(=O)[C@H](CC1CCCCC1)NC(=O)c1ccccc1	230

[1] CC(C)C[C@@H](C(=O)NCC#N)c1cccc(-c2ccc(N3CCNCC3)cc2)c1
[2] CCCN1CCN(c2ccc(C(=O)NC3(C(=O)NCC#N)CCCCC3)cc2)CC1 [BALICATIB]
(Q) Name the one with the greater IC50 value, either 1 or 2 as given. State your choice using its label.
(A) 1

----------
Target: Cathepsin K (Homo sapiens)
pIC50: −log10 of the molar value.
recorded.endpoint: pIC50

[P] N#CCNC(=O)C1(NC(=O)c2ccc(N3CCOCC3)cc2)CCCCC1
[Q] N#CCNC(=O)C1(NC(=O)c2ccc(-c3csc(N4CCOCC4)n3)cc2)CCCCC1
[R] CN1CCN(c2nc(-c3ccc(C(=O)NC4(C(=O)NCC#N)CCCCC4)cc3)cs2)CC1
[S] N#CCNC(=O)[C@H](CC1CCCCC1)NC(=O)c1ccccc1
(Q) Rank the items above by pIC50, largest value first. # answer = labels listed in requested order
(A) R, Q, P, S

----------
Biological target: Cathepsin S (Mus musculus, UniProt O70370)
Sequence (O70370 whole entry): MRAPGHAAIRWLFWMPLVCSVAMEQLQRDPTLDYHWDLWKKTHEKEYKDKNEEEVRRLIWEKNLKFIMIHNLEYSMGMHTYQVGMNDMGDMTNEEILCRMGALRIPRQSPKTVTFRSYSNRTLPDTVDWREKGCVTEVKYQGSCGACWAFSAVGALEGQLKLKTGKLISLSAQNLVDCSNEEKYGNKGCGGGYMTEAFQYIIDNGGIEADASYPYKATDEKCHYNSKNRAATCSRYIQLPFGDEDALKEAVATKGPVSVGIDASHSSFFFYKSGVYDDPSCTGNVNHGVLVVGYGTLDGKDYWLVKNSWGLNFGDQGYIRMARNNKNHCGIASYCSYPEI
Test: Inhibitory activity against mouse cathepsin S in mouse splenocytes
Format: cell-based
recorded.endpoint: IC50 (nM)

Answered cases to consult:
1. CC(C)C[C@@H](C(=O)NCC#N)c1cccc(-c2ccc(N3CCNCC3)cc2)c1 740
2. CCCN1CCN(c2ccc(C(=O)NC3(C(=O)NCC#N)CCCCC3)cc2)CC1 480
3. N#CCNC(=O)C1(NC(=O)c2ccc(N3CCOCC3)cc2)CCCCC1 8500
4. N#CCNC(=O)C1(NC(=O)c2ccc(-c3csc(N4CCOCC4)n3)cc2)CCCCC1 6700

[A] N#CCNC(=O)[C@H](CC1CCCCC1)NC(=O)c1ccccc1
[B] CN1CCN(c2nc(-c3ccc(C(=O)NC4(C(=O)NCC#N)CCCCC4)cc3)cs2)CC1
(Q) Kindly identify the item with the lower IC50 figure among these two: A and B State your choice using its label.
(A) A
(A: 40 nM, B: 318 nM)

----------
Biological target: Cathepsin S (Homo sapiens, UniProt P25774)
Sequence (P25774 whole entry): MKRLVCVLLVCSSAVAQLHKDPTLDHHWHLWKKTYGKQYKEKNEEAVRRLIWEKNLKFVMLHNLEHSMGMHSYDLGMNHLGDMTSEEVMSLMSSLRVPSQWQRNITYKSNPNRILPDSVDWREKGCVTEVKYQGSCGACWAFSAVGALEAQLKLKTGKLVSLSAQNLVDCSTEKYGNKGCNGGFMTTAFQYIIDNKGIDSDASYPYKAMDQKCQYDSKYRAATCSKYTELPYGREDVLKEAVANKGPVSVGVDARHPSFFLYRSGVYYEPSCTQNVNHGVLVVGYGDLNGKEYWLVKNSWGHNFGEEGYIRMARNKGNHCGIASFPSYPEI
Test: Inhibitory activity against human cathepsin S
recorded.endpoint: IC50 (µM)

molecule	IC50 [µM]
N#CCNC(=O)C1(NC(=O)c2ccc(N3CCOCC3)cc2)CCCCC1	52
CN1CCN(c2nc(-c3ccc(C(=O)NC4(C(=O)NCC#N)CCCCC4)cc3)cs2)CC1	47
N#CCNC(=O)C1(NC(=O)c2ccc(-c3csc(N4CCOCC4)n3)cc2)CCCCC1	27

[1] CCCN1CCN(c2ccc(C(=O)NC3(C(=O)NCC#N)CCCCC3)cc2)CC1 [BALICATIB]
[2] N#CCNC(=O)[C@H](CC1CCCCC1)NC(=O)c1ccccc1
[3] CC(C)C[C@@H](C(=O)NCC#N)c1cccc(-c2ccc(N3CCNCC3)cc2)c1
(Q) # rank_down: sort by IC50, max first # answer = labels listed in requested order
(A) 1, 3, 2

----------
Tested on: Rattus norvegicus
Assay: Plasma concentration in rat at 5 mg/kg, iv
Format: ADME, organism-based
Set-up: dose 5 mg/kg, route intravenous
Conditions: in vivo
recorded.endpoint: concentration (nM)
Kindly provide the numeric value in nM only, without the unit symbol.

(Q) Tell me reported concentration for N#CCNC(=O)C1(NC(=O)c2ccc(N3CCOCC3)cc2)CCCCC1 , tested with Rattus norvegicus.
(A) 170

----------
Target: Cathepsin S (Homo sapiens)
Assay: Inhibitory activity against human cathepsin S expressed in ramos cells
Format: cell-based
pIC50: −log10 of the molar value.
recorded.endpoint: pIC50

Answered cases to consult:
1. CN1CCN(c2nc(-c3ccc(C(=O)NC4(C(=O)NCC#N)CCCCC4)cc3)cs2)CC1 6.10
2. CCCN1CCN(c2ccc(C(=O)NC3(C(=O)NCC#N)CCCCC3)cc2)CC1 5.54

[a] CC(C)C[C@@H](C(=O)NCC#N)c1cccc(-c2ccc(N3CCNCC3)cc2)c1
[b] N#CCNC(=O)[C@H](CC1CCCCC1)NC(=O)c1ccccc1
[c] N#CCNC(=O)C1(NC(=O)c2ccc(N3CCOCC3)cc2)CCCCC1
(Q) Rank ascending by pIC50. # answer = labels listed in requested order
(A) c, a, b
(c: 5.32, a: 5.87, b: 8.00)

----------
Assay: Dissociation constant, pKa of the compound
Format: physicochemical
recorded.endpoint: pKa

molecule	recorded.endpoint	value.measured
CN1CCN(c2nc(-c3ccc(C(=O)NC4(C(=O)NCC(F)(F)F)CCCCC4)cc3)cs2)CC1	pKa	6.84
CN1CCN(c2nc(-c3ccc(C(=O)NC4(C(=O)NCC#N)CCCCC4)cc3)cs2)CC1	pKa	7.01
CCCN1CCN(c2ccc(C(=O)NC3(C(=O)NCC#N)CCCCC3)cc2)CC1 [BALICATIB]	pKa	7.76
CC(C)C[C@@H](C(=O)NCC#N)c1cccc(-c2ccc(N3CCNCC3)cc2)c1	pKa	8.77

----------
Tested on: A20
Assay: Effect of compound on antigen presentation in mouse A20 cells transfected with PC-specific mIgM by IL-2 secretion
Format: functional, cell-based
pIC50: −log10 of the molar value.
recorded.endpoint: pIC50

1) CC(C)C[C@@H](C(=O)NCC#N)c1cccc(-c2ccc(N3CCNCC3)cc2)c1 5.07

[A] CN1CCN(c2nc(-c3ccc(C(=O)NC4(C(=O)NCC#N)CCCCC4)cc3)cs2)CC1
[B] N#CCNC(=O)[C@H](CC1CCCCC1)NC(=O)c1ccccc1
(Q) Kindly identify the item with the lower pIC50 figure among these two: A and B State your choice using its label.
(A) A

----------
Target: Cathepsin K (Oryctolagus cuniculus)
Sequence (P43236 whole entry): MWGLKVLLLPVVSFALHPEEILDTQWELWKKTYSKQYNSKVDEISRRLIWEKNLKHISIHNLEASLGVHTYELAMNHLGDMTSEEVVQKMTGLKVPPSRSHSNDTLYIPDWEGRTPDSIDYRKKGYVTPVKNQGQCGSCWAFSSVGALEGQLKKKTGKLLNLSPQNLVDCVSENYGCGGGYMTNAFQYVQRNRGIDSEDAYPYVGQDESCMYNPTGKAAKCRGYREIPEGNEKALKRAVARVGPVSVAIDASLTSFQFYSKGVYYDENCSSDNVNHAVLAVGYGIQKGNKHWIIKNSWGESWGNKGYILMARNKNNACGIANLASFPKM
pIC50: −log10 of the molar value.
recorded.endpoint: pIC50

[P] CC(C)C[C@@H](C(=O)NCC#N)c1cccc(-c2ccc(N3CCNCC3)cc2)c1
[Q] N#CCNC(=O)C1(NC(=O)c2ccc(-c3csc(N4CCOCC4)n3)cc2)CCCCC1
(Q) Kindly identify the item with the lower pIC50 figure among these two: P and Q State your choice using its label.
(A) P

Cited source for all entries: ChEMBL document CHEMBL1141213
